test: CREB reporter modulators under forskolin, primary screen, cell-based, PC12, CRE-LacZ reporter, forskolin-stimulated (AID 1146); conditions: luminescence, 4.5 h, higher = more signal, called active from +8 up or from −8 down;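 further: PC12 cells with 6xCRE LacZ reporter stimulated by forskolin 10 µM; beta-galactosidase reporter signal reflecting CREB driven transcription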
Rule: z-score of 0.2 or more gives Y; anything lower gives N.

Known results for molecules:
molecule=C=CCOC(=O)[C@@H]1[C@H]2C(=O)O[C@H](c3ccccc3)[C@H](c3ccccc3)N2[C@H](c2ccc(OCCOC(=O)[C@H]3C[C@H]4C(=O)N[C@@H](CCCCNC(C)=O)C(=O)N4[C@H]3c3cccc(OCCO)c3)cc2)[C@@]12C(=O)Nc1ccc(I)cc12 category_label=Y
molecule="CC(C)CCC[C@@H](C)[C@H]1CC[C@@]2(C)C3=C(CC[C@]12C)[C@@]1(C)CC[C@H](OC(=O)c2ccc(Br)cc2)C(C)(C)C1CC3 (stereo not given in full)" category_label=N
molecule=C=CCNC(=O)[C@H]1[C@@H]2C(=O)O[C@@H](c3ccccc3)[C@@H](c3ccccc3)N2[C@@H](c2ccccc2OCCO)[C@]12C(=O)N(C(=O)OCCOC)c1ccc(C#CC3=CCCCC3)cc12 category_label=Y
molecule=C=CCNC(=O)[C@@H]1[C@H]2C(=O)O[C@H](c3ccccc3)[C@H](c3ccccc3)N2[C@H](c2ccc(OCCO)cc2)[C@@]12C(=O)N(C(=O)OCCOC)c1ccc(C#CC3=CCCCC3)cc12 category_label=Y

Here is the next item to consider.
q: Can C=C(COC)/C(=C/C[C@@H](OC(=O)c1ccncc1)c1ccc(CO)o1)c1cnc2ccccc2c1 be said to have z-score at or above 0.2?
a: N
